Below, each of the compounds is paired with its reported Mouse Cli (intrinsic clearance) value.
format: in vitro ADME, mouse; conditions: mouse, microsomes
Provide only the numeric value, understood in mL/min/g.

Some solved entries appear below for comparison.
{"COMPOUND": "Cc1ccc(Sc2c(C)nn(-c3ccccc3)c2O)cc1 [Compound 1b]", "Mouse Cli (intrinsic clearance) / mL/min/g": 1.1}
{"COMPOUND": "Cc1nn(-c2cccc(Cl)c2)c(O)c1Sc1ccc(Cl)cc1 [Compound 1h]", "Mouse Cli (intrinsic clearance) / mL/min/g": 2.6}
{"COMPOUND": "Cc1nn(-c2ccc(Cl)cc2)c(O)c1Sc1ccc(Cl)cc1 [Compound 1g]", "Mouse Cli (intrinsic clearance) / mL/min/g": 2.8}
{"COMPOUND": "Cc1nn(-c2ccccc2)c(O)c1Sc1nc2cc(Cl)ccc2o1 [Compound 1f]", "Mouse Cli (intrinsic clearance) / mL/min/g": 2.3}

Would you mind telling me what Mouse Cli (intrinsic clearance) value was observed for Cc1nn(-c2ccccc2)c(O)c1Sc1ccc(Cl)cc1 [Compound 1c] ? 2.2

* * *

assay: physchem; assay type: physicochemical
Below, each of the molecules is paired with its reported chromatographic logD value.
# print the numeric value only

{"SMILES_INPUT": "Cc1nn(-c2ccc(Cl)cc2)c(O)c1Sc1ccc(Cl)cc1", "RECORDED_NUMBER": 1.5}
{"SMILES_INPUT": "Cc1nn(-c2ccccc2)c(O)c1Sc1nc2cc(Cl)ccc2o1", "RECORDED_NUMBER": 0.8}
{"SMILES_INPUT": "Cc1nn(-c2cccc(Cl)c2)c(O)c1Sc1ccc(Cl)cc1", "RECORDED_NUMBER": 1.5}
{"SMILES_INPUT": "Cc1nn(-c2ccccc2)c(O)c1Sc1ccc(Cl)cc1", "RECORDED_NUMBER": 0.7}
{"SMILES_INPUT": "Cc1ccc(Sc2c(C)nn(-c3ccccc3)c2O)cc1", "RECORDED_NUMBER": 0.7}

Would you mind telling me what chromatographic logD value was observed for Cc1nn(-c2ccccc2)c(O)c1Sc1ccccc1 ? 0.4

Would you mind telling me what chromatographic logD value was observed for Cc1nn(-c2ccc(Cl)cn2)c(O)c1Sc1ccc(Cl)cc1 ? 3.7

* * *

Assay system UniProtKB P9WNZ1; read-out recorded as pIC50.
Sequence (P9WNZ1 whole entry): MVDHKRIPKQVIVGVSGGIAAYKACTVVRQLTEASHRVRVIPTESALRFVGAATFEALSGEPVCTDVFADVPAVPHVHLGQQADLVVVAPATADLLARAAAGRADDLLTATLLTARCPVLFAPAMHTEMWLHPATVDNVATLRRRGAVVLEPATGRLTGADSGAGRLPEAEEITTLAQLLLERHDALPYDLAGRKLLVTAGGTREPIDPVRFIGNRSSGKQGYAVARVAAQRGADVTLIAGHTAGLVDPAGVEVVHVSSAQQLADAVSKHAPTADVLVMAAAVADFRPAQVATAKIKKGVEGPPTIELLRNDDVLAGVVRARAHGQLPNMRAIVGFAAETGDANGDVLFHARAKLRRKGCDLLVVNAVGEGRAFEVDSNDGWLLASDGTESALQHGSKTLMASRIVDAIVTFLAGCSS
Expect pIC50 as a plain number equal to -log10 of the molar concentration.

Some solved entries appear below for comparison.
{"COMPOUND": "Cc1nn(-c2cccc(Cl)c2)c(O)c1Sc1ccc(Cl)cc1 [Compound 1h]", "EXPERIMENTAL_TARGET": "UniProtKB P9WNZ1", "pIC50": 5.64}
{"COMPOUND": "Cc1nn(-c2ccccc2)c(O)c1Sc1nc2cc(Cl)ccc2o1 [Compound 1f]", "EXPERIMENTAL_TARGET": "UniProtKB P9WNZ1", "pIC50": 4.81}
{"COMPOUND": "Cc1nn(-c2ccccc2)c(O)c1Sc1ccc(Cl)cc1Cl [Compound 1d]", "EXPERIMENTAL_TARGET": "UniProtKB P9WNZ1", "pIC50": 5.49}

As a next step, examine the compound that follows.
Give UniProtKB P9WNZ1 pIC50 for Cc1nn(-c2ccc(Cl)cc2)c(O)c1Sc1ccc(Cl)cc1 [Compound 1g] 5.46

* * *

test: physchem; assay type: physicochemical; settings: kinetic from dmso stock
Label no (0) if solubility kinetic falls below 100 µM; label yes (1) in every other case.

Recorded results for 6 compounds are shown here.
{"SMILES_INPUT": "Cc1ccc(Sc2c(C)nn(-c3ccccc3)c2O)cc1", "CLASSIFICATION": "yes (1)"}
{"SMILES_INPUT": "Cc1nn(-c2ccc(Cl)cn2)c(O)c1Sc1ccc(Cl)cc1", "CLASSIFICATION": "no (0)"}
{"SMILES_INPUT": "Cc1nn(-c2cccc(Cl)c2)c(O)c1Sc1ccc(Cl)cc1", "CLASSIFICATION": "no (0)"}
{"SMILES_INPUT": "Cc1nn(-c2ccc(Cl)cc2)c(O)c1Sc1ccc(Cl)cc1", "CLASSIFICATION": "yes (1)"}
{"SMILES_INPUT": "Cc1nn(-c2ccccc2)c(O)c1Sc1ccc(Cl)cc1", "CLASSIFICATION": "yes (1)"}
{"SMILES_INPUT": "Cc1nn(-c2ccccc2)c(O)c1Sc1nc2cc(Cl)ccc2o1", "CLASSIFICATION": "yes (1)"}

Hi, just wondering whether Cc1nn(-c2ccccc2)c(O)c1Sc1ccccc1 shows solubility kinetic of 100 µM or higher. yes (1)
